Study Target: human thyroid stimulating hormone (hTSH) (Homo sapiens, UniProt P01215;P01222 P01215:25-116,P01222:21-132)
Sequence (P01215 25-116, chain 1 of 2): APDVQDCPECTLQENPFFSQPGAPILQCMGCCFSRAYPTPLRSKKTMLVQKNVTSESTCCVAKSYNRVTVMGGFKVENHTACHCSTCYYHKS
Sequence (P01222 21-132, chain 2 of 2): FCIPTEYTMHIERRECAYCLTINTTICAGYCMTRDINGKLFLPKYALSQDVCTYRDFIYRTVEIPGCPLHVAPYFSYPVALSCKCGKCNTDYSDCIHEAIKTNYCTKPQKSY
Test Description: filter; not pH sensitive, pH 5.8-7.2
Condition Label: tags: Becton Dickinson; chain copies: alpha/beta heterodimer (inferred); label: 32P; possible hairpin; no G4 by RNase T1
Metric: pKd
// returns pKd (minus log10 of molar concentration), number only

Data point: T-15 (ssRNA, 2'-NH2 all pyrimidines) RNA: GGGAGGACGAUGCGGAUGUUGGCAGCAGGGUCCGACGGCGUAACCUUGCCAGCUGCAGACGACUCGCCCGA ; pKd = 7.85
